Source: patent US20140243374A1

OUTCOME_MEASURE: melting point

> print(dat)
                                   compound         result
1  COC(=O)c1ccc(CN(C2CCCCC2O)S(=O)(=O)c2ccc(Cl)cc2)cc1 (centres unmarked) [Example 25]  162 to 164 °C
2  CC[C@@H](C1CCCCC1)N(Cc1ccc(C(=O)O)cc1)S(=O)(=O)c1ccc(Cl)cc1 [Example 15]  147 to 149 °C
3  COC(=O)c1cc(CN(CC2CCOCC2)S(=O)(=O)c2ccc(Cl)cc2)ccc1OC [Example 16]  118 to 119 °C
4  O=C(O)c1ccc(CN([C@H]2CCCC[C@@H]2O)S(=O)(=O)c2ccc(Cl)cc2)cc1 [Example 30]  218 to 219 °C
5  O=C(O)c1ccc(CN(C2CCCCC2F)S(=O)(=O)c2ccc(Cl)cc2)c(F)c1F (centres unmarked) [Example 72]  108 to 109 °C

q: Returns the measured melting point for the input compound. Input: CC1CCCCC1N(Cc1ccc(C(=O)O)cc1)S(=O)(=O)c1ccc(Cl)cc1 (centres unmarked) [Example 3]
a: 180 to 182 °C

q: Returns the measured melting point for the input compound. Input: CC1CCCCC1N(Cc1ccc(C(=O)NC(C)(C)C(=O)O)cc1)S(=O)(=O)c1ccc(C(F)(F)F)nc1 (centres unmarked) [Example 33]
a: 131 to 132 °C

q: Returns the measured melting point for the input compound. Input: CC1CCCCC1N(Cc1ccc(C(=O)O)cc1)S(=O)(=O)c1ccc(C(F)(F)F)nc1 (centres unmarked) [Example 32]
a: 117 to 119 °C

q: Returns the measured melting point for the input compound. Input: CC[C@H](C1CCCC1)N(Cc1ccc(C(=O)O)cc1)S(=O)(=O)c1ccc(Cl)cc1 [Example 23]
a: 67 to 69 °C

q: Returns the measured melting point for the input compound. Input: CC1CCCCC1N(Cc1ccc(C(=O)N[C@@H](C)CO)cc1)S(=O)(=O)c1ccc(Cl)cc1 (some centres unmarked) [Example 5]
a: 95 to 97 °C

q: Returns the measured melting point for the input compound. Input: CC1CCCCC1N(Cc1ccc(C(=O)NC(C)(C)CO)cc1)S(=O)(=O)c1ccc(Cl)cc1 (centres unmarked) [Example 37]
a: 116 to 117 °C

q: Returns the measured melting point for the input compound. Input: CC1CCCCC1N(Cc1ccc(C(=O)NC(C)(C)C(=O)O)cc1)S(=O)(=O)c1ccc(Cl)cc1 (centres unmarked) [Example 34]
a: 121 to 122 °C

q: Returns the measured melting point for the input compound. Input: O=C(O)c1ccc(CN(C2CCCCC2)S(=O)(=O)c2ccc(Cl)cc2)cc1 [Example 45]
a: 135 to 137 °C

q: Returns the measured melting point for the input compound. Input: CC[C@@H](C1CCCC1)N(Cc1ccc(C(=O)O)cc1)S(=O)(=O)c1ccc(Cl)cc1 [Example 20]
a: 67 to 69 °C
